system: P388; test: Compound was tested in vivo for antitumor activity against lymphocytic leukemia P388 in mice; type: functional, Mus musculus
Property: log10(Optimal dose) (log10 of the value in mg/kg)
Hello, just confirming the data are log10 of Optimal dose with units of mg/kg.

The compound C/C1=C\[C@@H](O)C(=N/OCc2ccccc2)/C=C/C=C\c2csc(n2)[C@@H](C)NC(=O)C[C@@]2(CC1)[S+]([O-])SC(=O)[C@]2(C)O (stereo in doubt; 9c-1) showed log10(Optimal dose) equal to 0.90

The compound C/C1=C\[C@@H](OC2CCCCO2)C(=O)/C=C/C=C\c2csc(n2)[C@@H](C)NC(=O)C[C@@]2(CC1)[S+]([O-])SC(=O)[C@]2(C)O (some centres undefined) showed log10(Optimal dose) equal to -0.89

The compound CCOC(=O)O[C@@H]1/C=C(\C)CC[C@]2(CC(=O)N[C@H](C)c3nc(cs3)/C=C\C=C\C1=O)[S+]([O-])SC(=O)[C@]2(C)O (some centres undefined) showed log10(Optimal dose) equal to 0.30

The compound CC(=O)O[C@@H]1/C=C(\C)CC[C@]2(CC(=O)N[C@H](C)c3nc(cs3)/C=C\C=C\C1=O)[S+]([O-])SC(=O)[C@]2(C)O (some centres undefined) showed log10(Optimal dose) equal to 0.00

The compound C/C1=C\[C@@H](OC(=O)Oc2ccc([N+](=O)[O-])cc2)C(=O)/C=C/C=C\c2csc(n2)[C@@H](C)NC(=O)C[C@@]2(CC1)[S+]([O-])SC(=O)[C@]2(C)O (some centres undefined) showed log10(Optimal dose) equal to 0.30

Consider the additional compound presented here.
The compound CC(=O)O[C@@H]1/C=C(\C)CC[C@]2(CC(=O)N[C@H](C)c3nc(cs3)/C=C\C=C\C1=O)[S+]([O-])SC(=O)[C@]2(C)OC(C)=O (some centres undefined) showed log10(Optimal dose) equal to 0.30

* * *

test system: P388; test: Compound was tested in vivo for antitumor activity against lymphocytic leukemia P388 in mice; format: functional, Mus musculus
Some compounds, each annotated with its measured Optimal dose.

The compound C/C1=C\[C@@H](OC(=O)c2cnc3ccccc3n2)C(=O)/C=C/C=C\c2csc(n2)[C@@H](C)NC(=O)C[C@@]2(CC1)[S+]([O-])SC(=O)[C@]2(C)O (stereo partly drawn) showed Optimal dose equal to 2 mg/kg

* * *

Some compounds, each annotated with its measured Optimal dose.
tested on: P388; assay: Compound was tested in vivo for antitumor activity against lymphocytic leukemia P388 in mice; type: functional, Mus musculus
Answer format: numeric, mg/kg implied, no suffix.

Lab note: compound CCCCCCCCCCCCCCCC(=O)O[C@@H]1/C=C(\C)CC[C@]2(CC(=O)N[C@H](C)c3nc(cs3)/C=C\C=C\C1=O)[S+]([O-])SC(=O)[C@]2(C)O (some centres not stated) tested on P388; recorded Optimal dose was 16

Lab note: compound C/C1=C\[C@@H](O)C(=N/OCc2ccccc2)/C=C/C=C\c2csc(n2)[C@@H](C)NC(=O)C[C@@]2(CC1)[S+]([O-])SC(=O)[C@]2(C)O (stereo in doubt; 9c-2) tested on P388; recorded Optimal dose was 2

Lab note: compound COC1(O[C@@H]2/C=C(\C)CC[C@]3(CC(=O)N[C@H](C)c4nc(cs4)/C=C\C=C\C2=O)[S+]([O-])SC(=O)[C@]3(C)O)CCOCC1 (some centres not stated) tested on P388; recorded Optimal dose was 2

Lab note: compound C/C1=C\[C@@H](OC(=O)C2CCCCC2)C(=O)/C=C/C=C\c2csc(n2)[C@@H](C)NC(=O)C[C@@]2(CC1)[S+]([O-])SC(=O)[C@]2(C)O (some centres not stated) tested on P388; recorded Optimal dose was 4

Lab note: compound C/C1=C\[C@@H](O)C(=O)/C=C/C=C\c2csc(n2)[C@@H](C)NC(=O)C[C@@]2(CC1)[S+]([O-])SC(=O)[C@]2(C)O (some centres not stated) [LEINAMYCIN] tested on P388; recorded Optimal dose was 0.38

Lab note: compound C/C1=C\[C@@H](OC(=O)c2ccccc2)C(=O)/C=C/C=C\c2csc(n2)[C@@H](C)NC(=O)C[C@@]2(CC1)[S+]([O-])SC(=O)[C@]2(C)O (some centres not stated) tested on P388; recorded Optimal dose was 2

Lab note: compound CO\N=C1/C=C/C=C\c2csc(n2)[C@@H](C)NC(=O)C[C@@]2(CC/C(C)=C/[C@H]1O)[S+]([O-])SC(=O)[C@]2(C)O (stereo in doubt; 9b-2) tested on P388; recorded Optimal dose was 2
